meta.source: PubChem BioAssay (Tox21)

experiment: A CellTox Green Cytotoxicity Assay to monitor cytotoxicity in HepG2 cells - 40 hour (AID 1224879); conditions: CellTox Green fluorescence; series mostly up to 76.8 µM; note: nearly all actives have a fitted effect of over 40% in size
Results filed as inconclusive are left out. Activity calls are given as the source filed them. Calls come from the whole dose curve; as a rule, active = well fitted activation curve with a large enough effect in the repeat runs; inconclusive = weak or mixed curves; inactive = flat fitted curve, though single readings scatter.
Classes used: active, inactive

>>> df
                                    compound       cat
 0                                  CCCCCCCC  inactive
 1                          COC(=O)c1ccccc1C  inactive
 2                           CN(C)Cc1ccccc1O  inactive
 3                        CC1=CCC(=C(C)C)CC1  inactive
 4     CCC(COC(=O)CCS)(COC(=O)CCS)COC(=O)CCS  inactive
 5    Cc1nc(-c2ccc(Cl)cc2)oc1COC(C)(C)C(=O)O  inactive
 6  CCCCCCCCCCC[C@@H](C[C@@H]1OC(=O)[C@H]1CCCCCC)OC(=O)[C@H](CC(C)C)NC=O    active
 7                     O=C1CCCCCCCCCCCCCCCO1    active
 8            Cc1c2ccccc2c(C)c2c1ccc1ccccc12  inactive
 9  O=S(=O)(O)c1ccc(N=Nc2c(O)ccc3ccccc23)cc1  inactive
10                            Clc1ccnc(Cl)n1  inactive
11   CCC(CC)C(C)CCOC(C)=O (stereo not drawn)  inactive
12              O=C1c2ccccc2C(=O)N1SC1CCCCC1    active
13  O=C1OC2(c3ccc(O)cc3Oc3cc(O)ccc32)c2ccc(N=C=S)cc21    active
14             COc1cc(/C=C/c2ccccc2)oc(=O)c1  inactive
15  S=C([S-])NCCNC(=S)[S-].S=C([S-])NCCNC(=S)[S-].[Mn+2].[Zn+2]  inactive
16                      Nc1cc(Cl)c(O)c(Cl)c1  inactive
17                                  c1cnccn1  inactive
18  CCC(C)(CCC(C)C)C(=O)[O][Sn]([CH3])([CH3])[O]C(=O)C(C)(CC)CCC(C)C (stereo not drawn)  inactive
19             CCCCCCCCCCCCOC(=O)c1ccc(O)cc1  inactive
20              NC(=O)c1cccc([N+](=O)[O-])c1  inactive
21  COc1ccc2c(c1)c(CC(=O)OC/C=C(\C)CC/C=C(\C)CCC=C(C)C)c(C)n2C(=O)c1ccc(Cl)cc1  inactive
22                         COC(=O)c1ccccc1OC  inactive
